Reference source for all entries: ChEMBL document CHEMBL5137093

Assay: AUClast in Sprague-Dawley rat at 25 ml/kg,po measured upto 24 hrs by UPLC-MS/MS analysis
Assay type: ADME
Parameters: time < 24 hrs, dose 25 ml/kg, route po
Details: in vivo

{"MOLECULE": "COC(=O)N[C@H](C(=O)N[C@@H](Cc1ccccc1)[C@H](CN(Cc1ccc(-c2ccccn2)cc1)NC(=O)[C@@H](NC(=O)OC)C(C)(C)C)OC(=O)OC(OC(=O)[C@H](N)C(C)C)C(C)C)C(C)(C)C (stereo in doubt; 5j)", "AUC(0-t) at 24 h": "1.23 µM·h"}

###

Experiment: Cmax in Sprague-Dawley rat at 1 ml/kg,iv measured upto 24 hrs by UPLC-MS/MS analysis
Type: ADME
Set-up: dose 1 ml/kg, time < 24 hrs, route iv
Details: in vivo
OBSERVATION_TYPE: Cmax (nM)

{"MOLECULE": "COC(=O)N[C@H](C(=O)N[C@@H](Cc1ccccc1)[C@H](CN(Cc1ccc(-c2ccccn2)cc1)NC(=O)[C@@H](NC(=O)OC)C(C)(C)C)OC(=O)OC(OC(=O)[C@@H](N)C(C)C)C(C)C)C(C)(C)C (stereo in doubt; 3s)", "OBSERVED": 151}
{"MOLECULE": "COC(=O)N[C@H](C(=O)N[C@@H](Cc1ccccc1)[C@H](CN(Cc1ccc(-c2ccccn2)cc1)NC(=O)[C@@H](NC(=O)OC)C(C)(C)C)OC(=O)OC(OC(=O)[C@H](N)C(C)C)C(C)C)C(C)(C)C (stereo in doubt; 5j)", "OBSERVED": 371}
{"MOLECULE": "COC(=O)N[C@H](C(=O)N[C@@H](Cc1ccccc1)[C@H](CN(Cc1ccc(-c2ccccn2)cc1)NC(=O)[C@@H](NC(=O)OC)C(C)(C)C)OC(=O)OC(OC(=O)[C@@H](NC(=O)[C@H](N)C(C)C)C(C)C)C(C)C)C(C)(C)C (stereo in doubt; 6h)", "OBSERVED": 2180}

###

Test: Aqueous solubility of compound at pH 4 by UPLC analysis
Assay type: physicochemical
Settings: aqueous medium, read-out: solubility
OBSERVATION_TYPE: solubility

{"COMPOUND": "CN[C@H](C(=O)OC(OC(=O)O[C@@H](CN(Cc1ccc(-c2ccccn2)cc1)NC(=O)[C@@H](NC(=O)OC)C(C)(C)C)[C@H](Cc1ccccc1)NC(=O)[C@@H](NC(=O)OC)C(C)(C)C)C(C)C)C(C)C (stereo in doubt; 5e)", "OBSERVATION_TYPE": "solubility", "OBSERVED": "> 1400 µg/mL"}
{"COMPOUND": "COC(=O)N[C@H](C(=O)N[C@@H](Cc1ccccc1)[C@H](CN(Cc1ccc(-c2ccccn2)cc1)NC(=O)[C@@H](NC(=O)OC)C(C)(C)C)OC(=O)OC(OC(=O)CCN)C(C)C)C(C)(C)C (stereo in doubt; 3z)", "OBSERVATION_TYPE": "solubility", "OBSERVED": "> 1500 µg/mL"}
{"COMPOUND": "COC(=O)N[C@H](C(=O)N[C@@H](Cc1ccccc1)[C@H](CN(Cc1ccc(-c2ccccn2)cc1)NC(=O)[C@@H](NC(=O)OC)C(C)(C)C)OC(=O)OC(OC(=O)[C@@H](N)C(C)C)C(C)C)C(C)(C)C (stereo in doubt; 3r)", "OBSERVATION_TYPE": "solubility", "OBSERVED": "> 2500 µg/mL"}
{"COMPOUND": "COC(=O)N[C@H](C(=O)N[C@@H](Cc1ccccc1)[C@H](CN(Cc1ccc(-c2ccccn2)cc1)NC(=O)[C@@H](NC(=O)OC)C(C)(C)C)OC(=O)OC(OC(=O)[C@@H](NC(=O)[C@H](N)C(C)C)C(C)C)C(C)C)C(C)(C)C (stereo in doubt; 6g)", "OBSERVATION_TYPE": "solubility", "OBSERVED": "> 1200 µg/mL"}

###

Assay: Tmax in Sprague-Dawley rat at 3 ml/kg,po measured upto 24 hrs by UPLC-MS/MS analysis
Type: ADME
Conditions: in vivo, po, 24 h

{"COMPOUND": "COC(=O)N[C@H](C(=O)N[C@@H](Cc1ccccc1)[C@H](CN(Cc1ccc(-c2ccccn2)cc1)NC(=O)[C@@H](NC(=O)OC)C(C)(C)C)OC(=O)OC(OC(=O)[C@H](N)C(C)C)C(C)C)C(C)(C)C (stereo in doubt; 5j)", "Tmax / min": 24}
{"COMPOUND": "COC(=O)N[C@H](C(=O)N[C@@H](Cc1ccccc1)[C@H](CN(Cc1ccc(-c2ccccn2)cc1)NC(=O)[C@@H](NC(=O)OC)C(C)(C)C)OC(=O)OC(OC(=O)[C@@H](N)C(C)C)C(C)(C)C)C(C)(C)C (stereo in doubt; 4m)", "Tmax / min": 18}
{"COMPOUND": "COC(=O)N[C@H](C(=O)N[C@@H](Cc1ccccc1)[C@H](CN(Cc1ccc(-c2ccccn2)cc1)NC(=O)[C@@H](NC(=O)OC)C(C)(C)C)OC(=O)OC(OC(=O)[C@H](C(C)C)N(C)C)C(C)C)C(C)(C)C (stereo in doubt; 5h)", "Tmax / min": 30}
{"COMPOUND": "COC(=O)N[C@H](C(=O)N[C@@H](Cc1ccccc1)[C@H](CN(Cc1ccc(-c2ccccn2)cc1)NC(=O)[C@@H](NC(=O)OC)C(C)(C)C)OC(=O)OC(OC(=O)C1(N)CC1)C(C)C)C(C)(C)C (stereo in doubt; 3y)", "Tmax / min": 24}

###

Test: Relative AUC ratio of Atazanavir in Sprague-Dawley rat at 3 ml/kg,po measured upto 24 hrs by UPLC-MS/MS analysis
Type: ADME
Conditions: in vivo
Criterion: Ratio meeting or surpassing 4. Met: fulfilled. Not met: not fulfilled.

{"COMPOUND": "COC(=O)N[C@H](C(=O)N[C@@H](Cc1ccccc1)[C@H](CN(Cc1ccc(-c2ccccn2)cc1)NC(=O)[C@@H](NC(=O)OC)C(C)(C)C)OC(=O)OC(OC(=O)[C@@H](N)C(C)C)C(C)(C)C)C(C)(C)C (stereo in doubt; 4m)", "CLASSIFICATION": "not fulfilled"}
{"COMPOUND": "COC(=O)N[C@H](C(=O)N[C@@H](Cc1ccccc1)[C@H](CN(Cc1ccc(-c2ccccn2)cc1)NC(=O)[C@@H](NC(=O)OC)C(C)(C)C)OC(=O)OC(OC(=O)[C@@H](NC(=O)[C@@H](N)C(C)C)C(C)C)C(C)C)C(C)(C)C (stereo in doubt; 6f)", "CLASSIFICATION": "not fulfilled"}
{"COMPOUND": "COC(=O)N[C@H](C(=O)N[C@@H](Cc1ccccc1)[C@H](CN(Cc1ccc(-c2ccccn2)cc1)NC(=O)[C@@H](NC(=O)OC)C(C)(C)C)OC(=O)OC(OC(=O)[C@H](C(C)C)N(C)C)C(C)C)C(C)(C)C (stereo in doubt; 5h)", "CLASSIFICATION": "fulfilled"}
{"COMPOUND": "COC(=O)N[C@H](C(=O)N[C@@H](Cc1ccccc1)[C@H](CN(Cc1ccc(-c2ccccn2)cc1)NC(=O)[C@@H](NC(=O)OC)C(C)(C)C)OC(=O)OC(OC(=O)[C@H](C)N)C(C)C)C(C)(C)C (stereo in doubt; 3q)", "CLASSIFICATION": "not fulfilled"}
{"COMPOUND": "COC(=O)N[C@H](C(=O)N[C@@H](Cc1ccccc1)[C@H](CN(Cc1ccc(-c2ccccn2)cc1)NC(=O)[C@@H](NC(=O)OC)C(C)(C)C)OC(=O)OC(OC(=O)[C@@H](N)C(C)C)C(C)C)C(C)(C)C (stereo in doubt; 3s)", "CLASSIFICATION": "fulfilled"}
{"COMPOUND": "COC(=O)N[C@H](C(=O)N[C@@H](Cc1ccccc1)[C@H](CN(Cc1ccc(-c2ccccn2)cc1)NC(=O)[C@@H](NC(=O)OC)C(C)(C)C)OC(=O)OC(OC(=O)[C@@H](N)Cc1ccccc1)C(C)C)C(C)(C)C (stereo in doubt; 3w)", "CLASSIFICATION": "not fulfilled"}
{"COMPOUND": "COC(=O)N[C@H](C(=O)N[C@@H](Cc1ccccc1)[C@H](CN(Cc1ccc(-c2ccccn2)cc1)NC(=O)[C@@H](NC(=O)OC)C(C)(C)C)OC(=O)OC(OC(=O)C1(N)CC1)C(C)C)C(C)(C)C (stereo in doubt; 3y)", "CLASSIFICATION": "fulfilled"}
{"COMPOUND": "CCC(C)C(OC(=O)O[C@@H](CN(Cc1ccc(-c2ccccn2)cc1)NC(=O)[C@@H](NC(=O)OC)C(C)(C)C)[C@H](Cc1ccccc1)NC(=O)[C@@H](NC(=O)OC)C(C)(C)C)OC(=O)[C@@H](N)C(C)C (mixture of isomers)", "CLASSIFICATION": "not fulfilled"}
{"COMPOUND": "COC(=O)N[C@H](C(=O)N[C@@H](Cc1ccccc1)[C@H](CN(Cc1ccc(-c2ccccn2)cc1)NC(=O)[C@@H](NC(=O)OC)C(C)(C)C)OC(=O)OC(OC(=O)[C@@H](N)CC(C)C)C(C)C)C(C)(C)C (stereo in doubt; 3t)", "CLASSIFICATION": "not fulfilled"}
{"COMPOUND": "CCC(C)C(OC(=O)O[C@@H](CN(Cc1ccc(-c2ccccn2)cc1)NC(=O)[C@@H](NC(=O)OC)C(C)(C)C)[C@H](Cc1ccccc1)NC(=O)[C@@H](NC(=O)OC)C(C)(C)C)OC(=O)[C@@H](N)C(C)C (stereo in doubt; 4k)", "CLASSIFICATION": "not fulfilled"}
{"COMPOUND": "COC(=O)N[C@H](C(=O)N[C@@H](Cc1ccccc1)[C@H](CN(Cc1ccc(-c2ccccn2)cc1)NC(=O)[C@@H](NC(=O)OC)C(C)(C)C)OC(=O)OC(OC(=O)[C@@H](N)C(C)C)C(C)C)C(C)(C)C (stereo in doubt; 3r)", "CLASSIFICATION": "not fulfilled"}
